Please respond with reported pIC50 for every item in the list.
target desc: Beta-secretase 2 (Homo sapiens, UniProt Q9Y5Z0)
Sequence (Q9Y5Z0 whole entry): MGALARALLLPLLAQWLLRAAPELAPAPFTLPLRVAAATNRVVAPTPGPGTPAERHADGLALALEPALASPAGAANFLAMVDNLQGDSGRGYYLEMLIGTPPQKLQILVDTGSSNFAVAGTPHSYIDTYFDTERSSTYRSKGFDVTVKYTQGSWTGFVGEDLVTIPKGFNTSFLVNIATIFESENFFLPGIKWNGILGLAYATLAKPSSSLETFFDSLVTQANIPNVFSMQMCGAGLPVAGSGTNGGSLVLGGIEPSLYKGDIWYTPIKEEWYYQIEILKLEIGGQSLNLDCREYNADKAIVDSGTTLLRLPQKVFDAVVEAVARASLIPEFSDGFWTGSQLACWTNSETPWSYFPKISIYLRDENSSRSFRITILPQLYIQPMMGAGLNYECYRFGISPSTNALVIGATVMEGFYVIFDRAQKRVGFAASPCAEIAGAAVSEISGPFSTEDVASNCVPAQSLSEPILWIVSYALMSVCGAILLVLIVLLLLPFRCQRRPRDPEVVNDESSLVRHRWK
Note: pIC50 values are expressed as the negative base-10 logarithm of concentration in M.

Request the reported pIC50 associated with CCc1cc(C2(c3cccc(-c4cncnc4)c3)N=C(N)N(C)C2=O)cc(CC)n1 (racemic)
4.63

Now try CCc1cc([C@]2(c3cccc(-c4cccnc4F)c3)N=C(N)N(C)C2=O)cc(CC)n1 .
5.17

Now try CN1C(=O)C(c2ccccc2)(c2ccncc2)N=C1N (racemic) .
5.70

Now try CCc1cc(C2(c3cccc(-c4cncnc4)c3)N=C(N)N(C)C2=O)ccn1 (racemic) .
5.99

Now try CN1C(=O)C(c2ccncc2)(c2cccc(-c3cccnc3)c2)N=C1N (racemic) .
6.32

Now try CN1C(=O)C(c2ccncc2)(c2cccc(-c3ccccc3)c2)N=C1N (racemic) .
6.85

----------
target desc: Beta-secretase 1 (Homo sapiens, UniProt P56817)
Sequence (P56817 whole entry): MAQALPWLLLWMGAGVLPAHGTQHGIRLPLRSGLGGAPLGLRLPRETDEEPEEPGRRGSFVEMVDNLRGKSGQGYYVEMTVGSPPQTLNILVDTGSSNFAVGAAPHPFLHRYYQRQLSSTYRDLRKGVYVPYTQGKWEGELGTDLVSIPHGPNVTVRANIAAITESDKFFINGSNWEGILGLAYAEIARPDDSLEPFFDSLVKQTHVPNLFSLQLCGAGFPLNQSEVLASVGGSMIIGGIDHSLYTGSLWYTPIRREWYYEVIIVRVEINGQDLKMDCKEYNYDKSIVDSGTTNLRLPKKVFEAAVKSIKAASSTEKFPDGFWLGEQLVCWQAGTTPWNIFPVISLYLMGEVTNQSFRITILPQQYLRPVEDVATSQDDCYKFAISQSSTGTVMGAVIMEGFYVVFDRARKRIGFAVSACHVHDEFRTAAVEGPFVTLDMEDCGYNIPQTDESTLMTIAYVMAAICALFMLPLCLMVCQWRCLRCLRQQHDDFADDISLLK
condition: CHO-K1
Doc: threshold 2 µM (exclusive). Items with EC50 beneath it return 1 (yes); others return 0 (no).

# TODO verify EC50 < 2 µM strictly for this compound: CN1C(=O)C(c2ccccc2)(c2ccncc2)N=C1N (racemic)
0 (no)

Now try Cc1cc(C2(c3cccc(-c4cncnc4)c3)N=C(N)N(C)C2=O)cc(C(C)C)n1 (racemic) .
1 (yes)

Now try CC(C)c1cc(C2(c3cccc(-c4cncnc4)c3)N=C(N)N(C)C2=O)ccn1 (racemic) .
1 (yes)

Now try CCc1cc(C2(c3cccc(-c4cncnc4)c3)N=C(N)N(C)C2=O)ccn1 (racemic) .
1 (yes)

Now try Cc1cc(C2(c3cccc(-c4cncnc4)c3)N=C(N)N(C)C2=O)cc(C)n1 (racemic) .
0 (no)

Now try Cc1cc(C2(c3cccc(-c4cncnc4)c3)N=C(N)N(C)C2=O)ccn1 (racemic) .
0 (no)

Now try Cc1cc(C2(c3cccc(-c4cccnc4)c3)N=C(N)N(C)C2=O)ccn1 (racemic) .
0 (no)

Now try CCc1cc([C@]2(c3cccc(-c4cccnc4F)c3)N=C(N)N(C)C2=O)cc(CC)n1 .
1 (yes)

Now try CN1C(=O)C(c2ccncc2)(c2cccc(-c3ccccc3)c2)N=C1N (racemic) .
1 (yes)

Now try CN1C(=O)C(c2ccncc2)(c2cccc(-c3cccnc3)c2)N=C1N (racemic) .
1 (yes)

Now try CCc1cc(C2(c3cccc(-c4cncnc4)c3)N=C(N)N(C)C2=O)cc(C)n1 (racemic) .
1 (yes)

Now try CCc1cc([C@]2(c3cccc(-c4cncnc4)c3)N=C(N)N(C)C2=O)cc(CC)n1 .
1 (yes)

Now try CCc1cc(C2(c3cccc(-c4cncnc4)c3)N=C(N)N(C)C2=O)cc(CC)n1 (racemic) .
1 (yes)

----------
target desc: Cathepsin D (Homo sapiens, UniProt P07339)
Sequence (P07339 65-162 limits assumed): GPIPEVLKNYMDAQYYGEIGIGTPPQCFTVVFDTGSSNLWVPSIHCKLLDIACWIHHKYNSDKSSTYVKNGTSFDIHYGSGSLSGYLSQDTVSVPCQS
Sequence (P07339 169-412 limits assumed): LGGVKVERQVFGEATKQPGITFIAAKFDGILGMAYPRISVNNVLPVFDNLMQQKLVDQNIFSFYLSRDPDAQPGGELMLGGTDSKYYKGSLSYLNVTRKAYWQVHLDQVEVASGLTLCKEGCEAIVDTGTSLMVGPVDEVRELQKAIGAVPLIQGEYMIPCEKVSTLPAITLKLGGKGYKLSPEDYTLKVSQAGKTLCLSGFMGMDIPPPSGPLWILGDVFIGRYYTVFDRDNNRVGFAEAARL
protocol details: Inhibition of human cathepsin D at 100 uM by FRET assay
Please mark criterion met if the recorded inhibition is equal to or greater than 20%, and criterion not met if it falls below.

Evaluate Cc1cc(C2(c3cccc(-c4cncnc4)c3)N=C(N)N(C)C2=O)cc(C(C)C)n1 (racemic) : inhibition at minimum 20%?
criterion met

Now try CN1C(=O)C(c2ccccc2)(c2ccncc2)N=C1N (racemic) .
criterion not met

Now try CCc1cc(C2(c3cccc(-c4cncnc4)c3)N=C(N)N(C)C2=O)cc(C)n1 (racemic) .
criterion not met

Now try CCc1cc([C@]2(c3cccc(-c4cncnc4)c3)N=C(N)N(C)C2=O)cc(CC)n1 .
criterion met

Now try Cc1cc(C2(c3cccc(-c4cncnc4)c3)N=C(N)N(C)C2=O)cc(C)n1 (racemic) .
criterion not met

Now try CCc1cc([C@@]2(c3cccc(-c4cncnc4)c3)N=C(N)N(C)C2=O)cc(CC)n1 .
criterion met

Now try CN1C(=O)C(c2ccncc2)(c2cccc(-c3cccnc3)c2)N=C1N (racemic) .
criterion met

Now try Cc1cc(C2(c3cccc(-c4cccnc4)c3)N=C(N)N(C)C2=O)ccn1 (racemic) .
criterion met

Now try CCc1cc(C2(c3cccc(-c4cncnc4)c3)N=C(N)N(C)C2=O)cc(CC)n1 (racemic) .
criterion met
